Origin of the recorded values: ChEMBL document CHEMBL1201862

- Tested on: NCI-H460
- assay-remarks: NCI tumour cell line growth inhibition, 48 h
The source made the active and inactive calls. Rule as the data show it: active = GI50 up to about 1.1 µM and inactive = higher.
assay-endpoint: GI50

Guide cases for GI50, answers given:
I would be grateful if you could share the reported GI50 for Cc1nc(N)c(N2CCN([N+](=O)[O-])CC2)c(O)n1 .
> 100 µM (inactive)

I would be grateful if you could share the reported GI50 for CCOP(=O)(OCC)C(C)(C)OC(=O)NC(F)(F)F .
> 100 µM (inactive)

For every record below, what is its GI50?
1. C[C@]12CC=CC(=O)[C@@]1(C)CCC(=O)C2
2. COC(=O)[C@](C)(Cc1ccccc1)NC(=O)[C@@H](C)N1[C@@H](c2ccccc2)COC1(C)C

["> 100 µM (inactive)", "31 µM (inactive)"]

For every record below, what is its GI50?
1. O=C(CN1CCOCC1)c1ccc2c(c1)oc(=O)n2CCN1CCCCC1
2. C#CCCOC(=O)c1ccccc1OC(C)=O

["> 100 µM (inactive)", "> 100 µM (inactive)"]

For every record below, what is its GI50?
1. O=C1CCC(O)=C1O
2. Clc1ccc(Cc2nc3cc(Cl)ccc3o2)cc1
3. CCCCc1ccc(-n2c(C)c(COC(=O)NC)c(COC(=O)NC)c2C)cc1
4. Cc1ccc(F)c2[nH]c(-c3ccccc3)cc(=O)c12
5. C[C@H](NC1=C(Cl)C(=O)c2c(O)ccc(O)c2C1=O)C(=O)Nc1ccc([N+](=O)[O-])cc1

["> 100 µM (inactive)", "42.1 µM (inactive)", "3.81 µM (inactive)", "5.32 µM (inactive)", "2.06 µM (inactive)"]
